So I've got a bunch of compounds here, and I need their Particle size distribution: D10 values.
Experiment: Particle size distribution by light scattering (Malvern Master Sizer 2000)
Assay type: physicochemical
Conditions: 10th volume percentile particle size
One number for each entry, in μm.

compound	value_reported
COc1ccccc1OCC(O)CN1CCN(CC(=O)Nc2c(C)cccc2C)CC1 (stereo not drawn) [Example 18, Ranolazine]	4.420
COc1ccccc1OCC(O)CN1CCN(CC(=O)Nc2c(C)cccc2C)CC1 (stereo not drawn) [Example 15, Ranolazine]	5.272
COc1ccccc1OCC(O)CN1CCN(CC(=O)Nc2c(C)cccc2C)CC1 (stereo not drawn) [Example 17, Ranolazine]	1.324
COc1ccccc1OCC(O)CN1CCN(CC(=O)Nc2c(C)cccc2C)CC1 (stereo not drawn) [Example 14, Ranolazine]	6.311
COc1ccccc1OCC(O)CN1CCN(CC(=O)Nc2c(C)cccc2C)CC1 (stereo not drawn) [Example 16, Ranolazine]	5.026

Field: next compound
What the record says about COc1ccccc1OCC(O)CN1CCN(CC(=O)Nc2c(C)cccc2C)CC1 (stereo not drawn) [Example 19, Ranolazine] : Particle size distribution: D10 is 13.262

====

Experiment: Particle size distribution by light scattering (Malvern Master Sizer 2000)
Type: physicochemical
Conditions: 90th volume percentile particle size
Criterion: Particle size distribution: D90 meeting or surpassing 40 μm. Met: class 1. Not met: class 0.

compound	class_assignment
COc1ccccc1OCC(O)CN1CCN(CC(=O)Nc2c(C)cccc2C)CC1 (stereo not drawn) [Example 15, Ranolazine]	class 1

Threshold query (Particle size distribution: D90 >= 40 μm) on COc1ccccc1OCC(O)CN1CCN(CC(=O)Nc2c(C)cccc2C)CC1 (stereo not drawn) [Example 18, Ranolazine]
class 0

Hello, I need to know if COc1ccccc1OCC(O)CN1CCN(CC(=O)Nc2c(C)cccc2C)CC1 (stereo not drawn) [Example 14, Ranolazine] has measured Particle size distribution: D90 not below 40 μm. Thanks!
class 1

Form field: Particle size distribution: D90 at least 40 μm? Entry: COc1ccccc1OCC(O)CN1CCN(CC(=O)Nc2c(C)cccc2C)CC1 (stereo not drawn) [Example 17, Ranolazine]
class 0

Confirm if Particle size distribution: D90 reported for the compound COc1ccccc1OCC(O)CN1CCN(CC(=O)Nc2c(C)cccc2C)CC1 (stereo not drawn) [Example 19, Ranolazine] is 40 μm or above.
class 1

====

Experiment: Particle size distribution by light scattering (Malvern Master Sizer 2000)
Format: physicochemical
Settings: 50th volume percentile particle size
Source text: Particle size distributions of ranolazine particles may be measured by any technique known in the art. For example, particle size distributions of ranolazine particles may be measured using light scattering equipment, such as, for example, a Malvern Master Sizer 2000 from Malvern Instruments Limited, Malvern, Worcestershire, United Kingdom (helium neon laser source, ranolazine suspended in light liquid paraffin, size range: 0.01 μm to 3000 μm).
Could you please report measured Particle size distribution: D50 for the items listed next?
Numbers only, in μm.

See these solved cases before continuing.
molecule	assay_metric	value_reported
COc1ccccc1OCC(O)CN1CCN(CC(=O)Nc2c(C)cccc2C)CC1 (stereo not drawn) [Example 15, Ranolazine]	Particle size distribution: D50	18.656
COc1ccccc1OCC(O)CN1CCN(CC(=O)Nc2c(C)cccc2C)CC1 (stereo not drawn) [Example 14, Ranolazine]	Particle size distribution: D50	22.490
COc1ccccc1OCC(O)CN1CCN(CC(=O)Nc2c(C)cccc2C)CC1 (stereo not drawn) [Example 17, Ranolazine]	Particle size distribution: D50	5.140
COc1ccccc1OCC(O)CN1CCN(CC(=O)Nc2c(C)cccc2C)CC1 (stereo not drawn) [Example 19, Ranolazine]	Particle size distribution: D50	41.574
COc1ccccc1OCC(O)CN1CCN(CC(=O)Nc2c(C)cccc2C)CC1 (stereo not drawn) [Example 18, Ranolazine]	Particle size distribution: D50	16.147

Continue with the next molecule.
Particle size distribution: D50 reported for this molecule COc1ccccc1OCC(O)CN1CCN(CC(=O)Nc2c(C)cccc2C)CC1 (stereo not drawn) [Example 16, Ranolazine] : 18.770

====

Kindly state Specific surface area for each of the entries shown.
Assay: Specific surface area and span by light scattering (Malvern method)
Format: physicochemical
Conditions: method not stated at the place
Answers are plain numbers, in m^2/g.

Solved cases below.
molecule	Specific surface area (m^2/g)
COc1ccccc1OCC(O)CN1CCN(CC(=O)Nc2c(C)cccc2C)CC1 (stereo not shown) [Example 15, Ranolazine]	0.655
COc1ccccc1OCC(O)CN1CCN(CC(=O)Nc2c(C)cccc2C)CC1 (stereo not shown) [Example 14, Ranolazine]	0.539
COc1ccccc1OCC(O)CN1CCN(CC(=O)Nc2c(C)cccc2C)CC1 (stereo not shown) [Example 18, Ranolazine]	0.705

// below: Specific surface area requested for another molecule
What the record says about COc1ccccc1OCC(O)CN1CCN(CC(=O)Nc2c(C)cccc2C)CC1 (stereo not shown) [Example 19, Ranolazine] : Specific surface area is 0.291

====

Test: Specific surface area and span by light scattering (Malvern method)
Assay type: physicochemical
Conditions: particle size distribution span
assay_metric: span
Give bare numbers.

// solved cases for span follow
compound	span
COc1ccccc1OCC(O)CN1CCN(CC(=O)Nc2c(C)cccc2C)CC1 (stereo not drawn) [Example 19, Ranolazine]	1.823
COc1ccccc1OCC(O)CN1CCN(CC(=O)Nc2c(C)cccc2C)CC1 (stereo not drawn) [Example 16, Ranolazine]	1.817
COc1ccccc1OCC(O)CN1CCN(CC(=O)Nc2c(C)cccc2C)CC1 (stereo not drawn) [Example 18, Ranolazine]	1.611
COc1ccccc1OCC(O)CN1CCN(CC(=O)Nc2c(C)cccc2C)CC1 (stereo not drawn) [Example 14, Ranolazine]	1.833

Would you mind giving span for every compound in the list below?
1. COc1ccccc1OCC(O)CN1CCN(CC(=O)Nc2c(C)cccc2C)CC1 (stereo not drawn) [Example 15, Ranolazine]
2. COc1ccccc1OCC(O)CN1CCN(CC(=O)Nc2c(C)cccc2C)CC1 (stereo not drawn) [Example 17, Ranolazine]

1: 2.813; 2: 1.905
